# System: NCI-H522 lung
# assay.remarks: NCI tumour cell line growth inhibition, 48 h; in the data active means GI50 below about 0.43 µM; inactive means the rest
Where a SMILES comes first, the peptide text is derived from it. [ ]: non-standard residue; d: D form. pGlu = O=C1CC[CH](C(=O)O)N1
Parameter call: string, one of 1 = active, -1 = inactive

Query block: Outcome logged for `COc1ncnc2c(-c3ccccc3)cn(COCc3ccccc3)c12` in this assay:
Result block: -1

Query block: Outcome logged for C/C=C(\C)C(=O)NC1=CC[C@@]2(C)C(=CCC3C2CC[C@@]2(C)C3CC[C@@H]2C(C)N(C)C)C1=O (stereo not given in full) in this assay:
Result block: -1

Query block: Outcome logged for `C=C1C(=O)O[C@H]2[C@H]1CC/C(COC(=O)CSCSCC(=O)OC/C1=C/CC[C@@]3(C)O[C@H]3[C@H]3OC(=O)C(=C)[C@@H]3CC1)=C\CC[C@@]1(C)O[C@@H]21` in this assay:
Result block: -1

Query block: Outcome logged for CCNC(=O)C1CCCN1C(=O)C(CCCN=C(N)N)NC(=O)C(CC(C)C)NC(=O)C(CC(C)C)NC(=O)C(Cc1ccc(O)cc1)NC(=O)C(CO)NC(=O)C(Cc1c[nH]c2ccccc12)NC(=O)C(Cc1cnc[nH]1)NC(=O)C1CCC(=O)N1 (stereo not given) ([pGlu]HWSYLLRP-NHEt; configuration not given here) in this assay:
Result block: -1

Query block: Outcome logged for CCN1C(=O)N(CC)C2C1NN=c1s/c(=C\c3cccc(F)c3)c(=O)n12 (stereo not given) in this assay:
Result block: 1

---

# Test system: OVCAR-4 ovarian
# assay.remarks: NCI tumour cell line growth inhibition, 48 h
measured.property: TGI

OVCAR-4 ovarian assay, compound `Cc1cc2c(cc1Cl)SC(NNC(=O)c1ccco1)=NS2(=O)=O` , recorded TGI = > 10 µM

OVCAR-4 ovarian assay, compound `CC[C@H](CCCC[C@H]1CC[C@@H]2CC(=O)C[C@H]12)OC` , recorded TGI = > 100 µM

OVCAR-4 ovarian assay, compound `C=CCOc1cc(NC(=S)c2ccoc2C)ccc1OC` , recorded TGI = > 100 µM

OVCAR-4 ovarian assay, compound `COC(=O)C1=C(C)NC(C)=C(C(=O)OC)C1c1ccccc1NO` , recorded TGI = > 100 µM

OVCAR-4 ovarian assay, compound `c1ccc(-c2nnc(-c3ccccn3)c3c2C[C@@H]2C[C@@H]4Cc5c(-c6ccccn6)nnc(-c6ccccn6)c5[C@@H]4[C@H]32)nc1` , recorded TGI = > 100 µM

OVCAR-4 ovarian assay, compound `NCCCOc1ccc([N+](=O)[O-])cc1Cl` , recorded TGI = > 100 µM

OVCAR-4 ovarian assay, compound COC(=O)C(Cc1ccccc1)NP(=O)(O)OCC1OC(n2cc(Br)c(=O)[nH]c2=O)CC1O (stereo not given) , recorded TGI = > 100 µM

OVCAR-4 ovarian assay, compound CN1CC[C@]23c4c5ccc(O)c4O[C@H]2C(O)CC[C@@]3(O)[C@H]1C5 (stereo not given in full) , recorded TGI = > 100 µM

OVCAR-4 ovarian assay, compound `Clc1nc(Cl)c2ncn(CC3(Cn4cnc5c(Cl)nc(Cl)nc54)COC3)c2n1` , recorded TGI = 0.763 µM

OVCAR-4 ovarian assay, compound COC(=O)C1=C(C)C(=O)[C@]23C(CCCC[C@H]12)C(=O)[C@H](C(=O)OC)C3C (stereo not given in full) , recorded TGI = > 100 µM
